- STUDY SYSTEM: androgen receptor (Homo sapiens, UniProt P10275)
- Construct: endogenous in cells; host or cells: VCaP
- Sequence (P10275 whole entry): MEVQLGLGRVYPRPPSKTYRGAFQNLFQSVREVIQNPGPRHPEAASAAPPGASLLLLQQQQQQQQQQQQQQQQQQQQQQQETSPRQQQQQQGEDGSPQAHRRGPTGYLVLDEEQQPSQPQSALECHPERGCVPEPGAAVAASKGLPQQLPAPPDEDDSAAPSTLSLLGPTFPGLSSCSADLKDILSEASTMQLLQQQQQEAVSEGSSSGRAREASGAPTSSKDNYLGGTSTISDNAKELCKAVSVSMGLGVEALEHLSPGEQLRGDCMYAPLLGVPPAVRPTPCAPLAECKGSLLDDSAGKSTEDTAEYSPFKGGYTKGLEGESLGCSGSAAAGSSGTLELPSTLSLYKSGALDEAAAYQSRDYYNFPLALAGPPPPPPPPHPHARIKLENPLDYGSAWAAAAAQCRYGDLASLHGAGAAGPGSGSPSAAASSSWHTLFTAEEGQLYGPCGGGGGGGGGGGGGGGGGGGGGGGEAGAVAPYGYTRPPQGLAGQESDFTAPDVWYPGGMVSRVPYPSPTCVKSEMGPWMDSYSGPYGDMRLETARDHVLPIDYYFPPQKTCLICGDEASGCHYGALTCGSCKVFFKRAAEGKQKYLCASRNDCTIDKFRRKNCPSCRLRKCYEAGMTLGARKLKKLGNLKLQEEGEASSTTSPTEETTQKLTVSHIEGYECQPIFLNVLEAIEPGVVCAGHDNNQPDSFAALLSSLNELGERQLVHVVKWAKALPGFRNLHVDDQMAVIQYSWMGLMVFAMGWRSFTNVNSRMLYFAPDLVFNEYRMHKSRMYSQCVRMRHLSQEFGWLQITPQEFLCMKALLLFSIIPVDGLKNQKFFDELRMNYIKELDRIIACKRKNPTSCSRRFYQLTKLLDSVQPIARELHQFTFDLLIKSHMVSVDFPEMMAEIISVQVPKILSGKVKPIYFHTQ
- EXPERIMENT SUMMARY: AR ELISA assay (PathScan AR Sandwich ELISA), VCaP cells
- Format: cell-based
- MEASUREMENT SETUP: drug treatment 5 hours
RECORDED METRIC: DC50

Example compounds with recorded DC50:
CC1(C)[C@H](NC(=O)c2ccc(N3CCC(CN4CCN(c5cccc(C(=O)NC6CCC(=O)NC6=O)c5)CC4)CC3)cc2)C(C)(C)[C@H]1Oc1ccc(C#N)c(Cl)c1 (stereo partly shown) [Compound 4]	< 1 nM
Cc1cc(O[C@H]2C(C)(C)[C@H](NC(=O)c3ccc(N4CCC(CN5CCN(c6ccc(C(=O)NC7CCC(=O)NC7=O)cc6)CC5)CC4)nn3)C2(C)C)cc(C)c1C#N (stereo partly shown) [Compound 2]	< 1 nM
Cc1cc(O[C@H]2C(C)(C)[C@H](NC(=O)c3ccc(N4CCC(CN5CCN(c6cncc(C(=O)NC7CCC(=O)NC7=O)c6)CC5)CC4)cc3)C2(C)C)cc(C)c1C#N (stereo partly shown) [Compound 5]	< 1 nM

With those in mind, consider the next compound.
Notebook: Cc1cc(O[C@H]2C(C)(C)[C@H](NC(=O)c3cnc(N4CCC(CN(C(C)C)[C@H]5C[C@H](Oc6ccc(C(=O)NC7CCC(=O)NC7=O)cc6)C5)CC4)cn3)C2(C)C)cc(C)c1C#N (stereo partly shown) [Compound 13] , DC50 read as 1 to 10 nM

Cited source for all entries: patent US12427144B2
